# target-or-test-system: Soluble mouse EPOR chimera proteins (erythropoietin receptor) (Mus musculus)
# Construct: Soluble mouse EPOR chimera proteins; purchased R&D Systems
# Sequence (P14753 25-249 limits assumed, stated change not applied): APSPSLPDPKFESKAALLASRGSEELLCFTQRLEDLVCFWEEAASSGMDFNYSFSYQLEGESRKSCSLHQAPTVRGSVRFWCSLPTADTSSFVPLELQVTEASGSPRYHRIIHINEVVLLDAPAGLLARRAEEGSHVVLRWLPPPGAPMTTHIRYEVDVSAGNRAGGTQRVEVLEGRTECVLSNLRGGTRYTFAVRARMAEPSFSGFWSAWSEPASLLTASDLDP
# run-description: Surface plasmon resonance (SPR) binding affinity to erythropoietin receptor
# condition-info: dissociation rate, Table 8
Peptide text beside a SMILES is read from it.
readout-label: dissociation rate constant (koff)

Worked cases, dissociation rate constant (koff) given:
CC(C)C[C@H](NC(=O)CNC(=O)[C@H](C)NC(=O)[C@@H](NC(=O)[C@H](C)NC(=O)[C@H](CCCCN)NC(=O)[C@@H](N)CC(N)=O)C(C)C)C(=O)N[C@@H](CCCNC(=N)N)C(=O)N[C@@H](CO)C(=O)N[C@@H](CC(C)C)C(=O)N[C@H](C(=O)N[C@H](C(=O)N[C@@H](CC(N)=O)C(=O)O)C(C)C)[C@@H](C)O [ML8-1] (H-NKAVAGLRSLTVN-OH; N-terminus and C-terminus assumed) : 1.5 × 10^−1
CC[C@H](C)[C@H](NC(=O)[C@H](C)NC(=O)[C@H](CCC(=O)O)NC(=O)[C@H](CCCCN)NC(=O)[C@H](CCC(N)=O)NC(=O)[C@H](C)NC(=O)CNC(=O)[C@H](CC(C)C)NC(=O)[C@H](C)NC(=O)[C@H](CCCNC(=N)N)NC(=O)[C@H](CC(C)C)NC(=O)[C@H](CC(C)C)NC(=O)[C@@H](NC(=O)[C@@H](NC(=O)[C@H](CC(C)C)NC(=O)[C@H](CO)NC(=O)[C@H](CCCNC(=N)N)NC(=O)[C@H](CC(C)C)NC(=O)CNC(=O)[C@@H](N)CO)[C@@H](C)O)[C@@H](C)O)C(=O)O [ML6] : 4.5 × 10^−2
CC(C)C[C@H](NC(=O)[C@H](C)NC(=O)[C@H](CCCNC(=N)N)NC(=O)[C@H](CC(C)C)NC(=O)[C@H](CC(C)C)NC(=O)[C@@H](NC(=O)[C@@H](NC(=O)[C@H](CC(C)C)NC(=O)[C@H](CO)NC(=O)[C@H](CCCNC(=N)N)NC(=O)[C@H](CC(C)C)NC(=O)CNC(=O)[C@H](CO)NC(=O)[C@@H](NC(=O)[C@H](C)NC(=O)[C@H](CCCCN)NC(=O)[C@@H](N)CC(=O)O)C(C)C)[C@@H](C)O)[C@@H](C)O)C(=O)O [ML8] (H-DKAVSGLRSLTTLLRAL-OH; N-terminus and C-terminus assumed) : 0.8 × 10^−1
CC(C)[C@H](NC(=O)[C@H](CCCCN)NC(=O)[C@@H](N)[C@@H](C)O)C(=O)N[C@@H](CC(N)=O)C(=O)N[C@@H](Cc1ccccc1)C(=O)N[C@@H](Cc1ccc(O)cc1)C(=O)N[C@@H](C)C(=O)N[C@@H](Cc1c[nH]c2ccccc12)C(=O)N[C@@H](CCCCN)C(=O)N[C@@H](CCCNC(=N)N)C(=O)O [ML3] (H-TKVNFYAWKR-OH; N-terminus and C-terminus assumed) : 3 × 10^−3
CC(C)[C@H](NC(=O)[C@H](CCCNC(=N)N)NC(=O)[C@@H](N)[C@@H](C)O)C(=O)N[C@@H](CC(N)=O)C(=O)N[C@@H](Cc1ccc(O)cc1)C(=O)N[C@@H](CCC(N)=O)C(=O)N[C@@H](C)C(=O)N[C@@H](Cc1c[nH]c2ccccc12)C(=O)N[C@@H](CCCCN)C(=O)N[C@@H](CCCNC(=N)N)C(=O)O [ML3-1] (H-TRVNYQAWKR-OH; N-terminus and C-terminus assumed) : 1.3 × 10^−2

Request: Which measured dissociation rate constant (koff) value corresponds to CC(C)C[C@H](NC(=O)CNC(=O)[C@@H](N)CO)C(=O)N[C@@H](CCCNC(=N)N)C(=O)N[C@@H](CO)C(=O)N[C@@H](CC(C)C)C(=O)N[C@H](C(=O)N[C@H](C(=O)N[C@@H](CC(C)C)C(=O)N[C@@H](CC(C)C)C(=O)N[C@@H](CCCNC(=N)N)C(=O)N[C@@H](C)C(=O)N[C@@H](CC(C)C)C(=O)NCC(=O)O)[C@@H](C)O)[C@@H](C)O [ML5] (H-SGLRSLTTLLRALG-OH; N-terminus and C-terminus assumed) ?
Result: 0.1 × 10^−3
